// provenance: patent US20250177546A1

Entries annotated with measured EC50 (read off the curve)
experimental.system: T1, human ROR1 on cells (full-length human ROR1 on huROR1-HEK293 cells; human ROR1 on A549 and HT-29 tumor cells) (human, UniProt Q01973 30-937)
T1 construct: whole, on cells; also called hROR1-HEK293T; A549 tumor cells
T1 sequence (Q01973 30-937): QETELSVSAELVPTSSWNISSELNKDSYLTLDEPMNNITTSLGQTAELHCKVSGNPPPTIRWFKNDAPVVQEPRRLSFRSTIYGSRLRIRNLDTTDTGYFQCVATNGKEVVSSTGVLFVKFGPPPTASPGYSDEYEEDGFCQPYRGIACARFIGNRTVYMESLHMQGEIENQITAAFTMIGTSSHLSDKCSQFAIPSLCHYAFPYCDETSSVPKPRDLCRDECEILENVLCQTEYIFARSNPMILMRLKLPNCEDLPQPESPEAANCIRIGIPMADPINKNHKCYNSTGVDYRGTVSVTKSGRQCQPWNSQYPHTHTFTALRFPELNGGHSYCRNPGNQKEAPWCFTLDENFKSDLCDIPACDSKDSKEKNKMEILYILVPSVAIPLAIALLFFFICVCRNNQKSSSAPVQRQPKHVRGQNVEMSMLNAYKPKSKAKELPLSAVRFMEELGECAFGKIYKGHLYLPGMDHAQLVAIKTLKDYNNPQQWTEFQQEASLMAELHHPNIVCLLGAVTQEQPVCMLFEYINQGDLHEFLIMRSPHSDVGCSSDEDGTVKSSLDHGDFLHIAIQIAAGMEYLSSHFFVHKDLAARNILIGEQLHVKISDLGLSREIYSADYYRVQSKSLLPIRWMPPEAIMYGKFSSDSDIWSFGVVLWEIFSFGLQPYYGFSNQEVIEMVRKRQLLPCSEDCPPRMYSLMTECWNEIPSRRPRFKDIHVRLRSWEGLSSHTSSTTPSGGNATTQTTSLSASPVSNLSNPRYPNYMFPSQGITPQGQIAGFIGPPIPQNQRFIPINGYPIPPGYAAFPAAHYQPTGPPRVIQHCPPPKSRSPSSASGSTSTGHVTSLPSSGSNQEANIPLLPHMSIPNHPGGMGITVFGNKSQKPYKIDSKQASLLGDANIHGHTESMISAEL
experiment.notes: flow cytometry (FACS) on huROR1-HEK293 cells, anti-human IgG-Fc secondary antibody, MFI

Examples with their reported EC50 (read off the curve) follow.
* B74 (chimeric antibody) (antibody, human IgG1, kappa, V domains shown, ExpiCHO expression) VH: EVMLVESGGNLVKPGGSLKLSCAASGFTFSIYAMSWVRQTPEKRLEWVASISGGGTAYYPDSVKGRFTISRDNARNILYLQMSSLRSEDTAIYYCARGYYYGGSPYWHFDVWGAGTTVTVSS VL: DIKMTQSPSSMYASLGERVTITCKASQDINSYLSWFQQKPGKSPKTLIYRANRLVDGVPSRFSGSGSGQDYSLTISSLEYEDIGIYYCLQIDEFPYTFGGGTKLEIKR | ~0.2 µg/mL
* B31 (chimeric antibody) (antibody, human IgG1, kappa, V domains shown, ExpiCHO expression) VH: EVMLVESGGGLVKPGGSLKLSCAASGFTFSRYAMSWVRQTPEKRLEWVASISRGGSTYYPDSVKGRFTISRDNARNILYLQMSSLRSEDTAMYYCASYFGNYDAMDYWGQGTSVTVSS VL: DIQMNQSPSSMYASLGERVTITCKASQDINNYVSWFQQKPGKSPKTLIYRANRLVDGVPSRFSGSGSGQDYSFTISSLEYEDMGIYYCLQFDEFPYTFGGGTKLEIKR | ~0.08 µg/mL

Note: attention shifts to another entry.
Inquiry: Name the recorded EC50 (read off the curve) for C77 (chimeric antibody) (antibody, human IgG1, kappa, V domains shown, ExpiCHO expression) VH: EVKLVESGGGLVKPGGSLKLSCAASGFSFSNYAMSWVRQTPEKRLEWVASINSGVTTYYPDSVKGRFTVSRDNARNILYLHMTGLRSEDTAIYYCSRGYYYGGSPYWHFDVWGAGTTVTVSS VL: DIQMTQSPSSMHASLGERVTITCKASQDINNYVSWFQQKPGKSPKTLIYRANRLVDGVPSRFSGSGSGQDYSFTISSLEYEDMGIYYCLQFDEFPYTFGGGTKLEIKR .
Reply text: ~0.1 µg/mL
